Where do these numbers come from? They come from the supplement of paper PMC10065799.

- testedTarget: c-Src SH2
- protocolDetails: SH2 binding enrichment of the phosphorylated peptide, bacterial display (enrichment ratio); higher = better substrate or ligand; peptides without Tyr show the background
observationType: SH2 binding enrichment

Would you please look over these solved cases?
| sequenceInput | observationType | numericValue |
| --- | --- | --- |
| QEEPEYWDQET [HLA-A_Y83_G80E] | SH2 binding enrichment | 0.491 |
| WISNRYPDFSS [PRPH2_Y184_L185P] | SH2 binding enrichment | 0.5 |
| KSSDVYVSFDF [SORL1_Y136_YF] | SH2 binding enrichment | 0.497 |
| IIGNGYFFHVF [MYBPC3_Y1135_R1138H_YF] | SH2 binding enrichment | 0.484 |
| LVMFIDAIFGM [SCN1A_Y1684_Y1684D] | SH2 binding enrichment | 0.698 |

I = LSVEIYDRREF [ITGB7_Y753_YF]
II = QFKGKYLAKHN [CASK_Y712_D710G_YF]
Ask: Input pair: I , II . Output: entry with lower SH2 binding enrichment. // return label of chosen record
Result: I
(I: 0.542, II: 1.16)

1 = VNFDYYTVNLG [GFPT1_Y367_D366Y]
2 = CSEEMYRLMLQ [RET_Y981]
Ask: Form: Entry with minimum SH2 binding enrichment (choose one): 1 / 2 Output the label that corresponds to your choice.
Result: 2
(2: 0.414, 1: 0.741)

I = DGYIDYAEFAK [MCFD2_Y138]
II = GIYKDYYRYNF [PLA2G2D_Y85_S80G]
Ask: Thinking about recorded SH2 binding enrichment values, which is higher, I or II ? Lab note: record the label of whichever item you select.
Result: II

* * *

- testedTarget: c-Src SH2;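 further: peptide library displayed on the E. coli surface as eCPX fusions, selected cells deep-sequenced, score is each peptide's frequency after selection divided by its frequency in the input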
- protocolDetails: SH2 binding enrichment of the phosphorylated peptide, bacterial display (enrichment ratio); higher = better substrate or ligand; peptides without Tyr show the background
observationType: SH2 binding enrichment

Below, each entry is followed by its recorded SH2 binding enrichment result.
| sequenceInput | SH2 binding enrichment |
| --- | --- |
| LQLLGYRPVYS [CHST6_Y358] | 0.783 |
| LSSLAYSGKDA [FXN_Y205] | 0.59 |
| GLDSSYLLRDS [SH2D1A_Y29_G27S] | 0.476 |
| ILCTVYAFKTR [GRM3_Y754] | 0.794 |
| HFVDEYDPTME [KRAS_Y32_I36M] | 0.717 |
| EILLSYPRTGY [TGM1_Y365_L366P] | 0.58 |
| DDFDLYGGEKF [PTPN11_Y66_Y62D_YF] | 0.426 |
| HFVDEYDPTIE [KRAS_Y32] | 0.575 |
| QDLLLYQTHSE [PKHD1_Y255_F253L] | 0.394 |
| IQKWEYVPLGP [FAH_Y244] | 0.656 |

a = SQDSAYHSGIQ [FLG_Y3940]
b = CTNIHYNYMCN [TP53_Y234_T231N]
c = QTEAQYRFIYM [PTPN11_Y511]
Ask: Order field: SH2 binding enrichment | Direction: descending (largest first) Please list each label once, in the requested order.
Result: b, a, c

* * *

- testedTarget: FGFR3 (UniProt P22607)
- Sequence (P22607 whole entry, looked up): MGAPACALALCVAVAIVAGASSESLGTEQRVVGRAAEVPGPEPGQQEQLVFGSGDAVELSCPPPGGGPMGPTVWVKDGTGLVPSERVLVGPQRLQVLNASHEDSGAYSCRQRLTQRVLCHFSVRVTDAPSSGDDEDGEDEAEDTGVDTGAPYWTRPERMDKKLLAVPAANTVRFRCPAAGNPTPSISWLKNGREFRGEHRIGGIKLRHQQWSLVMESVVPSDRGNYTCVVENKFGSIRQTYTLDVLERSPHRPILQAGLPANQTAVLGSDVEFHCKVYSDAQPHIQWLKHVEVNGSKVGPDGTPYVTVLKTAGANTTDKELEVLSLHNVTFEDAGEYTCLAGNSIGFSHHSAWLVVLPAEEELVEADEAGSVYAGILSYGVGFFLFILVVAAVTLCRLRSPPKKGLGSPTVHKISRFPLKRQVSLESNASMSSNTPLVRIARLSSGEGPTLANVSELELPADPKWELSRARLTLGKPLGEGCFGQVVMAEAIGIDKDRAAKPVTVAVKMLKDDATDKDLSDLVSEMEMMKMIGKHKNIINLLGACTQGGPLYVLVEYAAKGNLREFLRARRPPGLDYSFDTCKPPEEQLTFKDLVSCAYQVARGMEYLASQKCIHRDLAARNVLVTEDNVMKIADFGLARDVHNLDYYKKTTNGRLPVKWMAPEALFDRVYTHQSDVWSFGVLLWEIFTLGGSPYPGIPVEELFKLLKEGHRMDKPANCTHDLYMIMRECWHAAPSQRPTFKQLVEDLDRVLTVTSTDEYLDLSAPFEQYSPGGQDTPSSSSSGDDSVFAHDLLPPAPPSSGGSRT
- protocolDetails: phosphorylation enrichment, bacterial display (enrichment ratio); higher = better substrate or ligand; peptides without Tyr show the background
The following sequences are shown together with reported phosphorylation enrichment values.
Form rule: numeric answer, no unit written next to it.

// solved cases for phosphorylation enrichment follow
| sequenceInput | testedTarget | phosphorylation enrichment |
| --- | --- | --- |
| FSTPPYLLEAA [BRIP1_Y921_S919P_YF] | FGFR3 (UniProt P22607) | 0.707 |
| SSMNDYNPLEK [MYOC_Y479_I477N] | FGFR3 (UniProt P22607) | 0.578 |
| AHADEYGAEAL [HBA1_Y25_G23D] | FGFR3 (UniProt P22607) | 0.564 |
| PELIDYGKLWK [ACTN1_Y193_R197W] | FGFR3 (UniProt P22607) | 0.766 |
| FCVDCYKNFVA [FHL1_Y213_YF] | FGFR3 (UniProt P22607) | 0.617 |
| QNTGDDFDLFG [PTPN11_Y62_Y62D_YF] | FGFR3 (UniProt P22607) | 1.1 |
| VDGSLYETHPQ [HK1_Y417_K418E] | FGFR3 (UniProt P22607) | 0.607 |
| RHPYFYAPELL [ALB_Y174] | FGFR3 (UniProt P22607) | 10.8 |
| KMKGDYYRYLA [YWHAG_Y130] | FGFR3 (UniProt P22607) | 5.52 |
| ACCLLYCGDVV [TUBA4A_Y319_R320C] | FGFR3 (UniProt P22607) | 1.23 |

From here, focus on the item given below.
Ask: Provide phosphorylation enrichment value for the following sequence: KDHLDYKYQPR [SOX9_Y172_P170L]
Result: 0.629
